I'd appreciate it if you could supply TGI values for the items below.
- Tested on: MDA-MB-231 breast
- Method Description: NCI tumour cell line growth inhibition, 48 h

QUERY: Param item = O=C1c2ccccc2C(=O)N1C(=S)c1ccccc1 ; retrieve measured TGI.
RESULT: > 100 µM

QUERY: Continue with Cc1ccc(S(=O)(=Nc2ccccc2)C(C(C)C)C(C)(C)Cl)cc1 (stereo not drawn)
RESULT: > 50 µM

QUERY: Continue with Cc1ccc(O)c(Cc2nc3ccccc3nc2-c2cccc(Br)c2)c1
RESULT: > 100 µM

QUERY: Continue with CCOC(=O)Nc1nc2c(F)c(F)c(F)cc2s1
RESULT: > 100 µM

QUERY: Continue with C[C@H](CC[C@@H](O)C(C)(C)O)[C@H]1CC[C@@]2(C)[C@@H]3CC=C4[C@@H](CC[C@H](OC5OC(CO)C(O)C(O)C5O)C4(C)C)[C@]3(C)C(=O)C[C@]12C (stereo partly drawn)
RESULT: > 100 µM

QUERY: Continue with COc1ccc(N2CCN(CC(=O)N3CCN(c4nnc(-c5ccccc5)c(-c5ccccc5)n4)CC3)CC2)cc1
RESULT: > 100 µM

QUERY: Continue with CCN(CC)C(=S)SNCCc1ccc(S(N)(=O)=O)cc1
RESULT: 30.4 µM

QUERY: Continue with CN(C)CCCNC(=O)c1cc2c3ccccc3[nH]c2c2ncccc12
RESULT: 74.9 µM

QUERY: Continue with CC(C)[C@@H](C(=O)O[C@@H]1/C=C/C(=O)O[C@@H](C)CCC/C=C/[C@@H]2C[C@H](O)C[C@H]21)[N+](C)(C)C
RESULT: > 100 µM

QUERY: Continue with O=C1C=C(N2CC2)c2ccccc2C1=O
RESULT: 5.11 µM

QUERY: Continue with N#CC1N(C(=O)c2ccc(F)cc2)c2ccccc2N1C(=O)c1ccc(F)cc1
RESULT: > 100 µM

QUERY: Continue with O=C(CCc1cc(O)cc(O)c1)NCCc1ccc(O)c(O)c1
RESULT: > 100 µM

QUERY: Continue with CC(=O)OCCC/C(=C\c1ccc2ccccc2c1)[N+](=O)[O-]
RESULT: 4.59 µM

QUERY: Continue with Cn1cc(-c2csc(-c3cn(CCN4CCOCC4)c4ccc(F)cc34)n2)c2cccnc21
RESULT: 8.48 µM

QUERY: Continue with O=C(NN=C1CCCCC1)Nc1ccccc1Cl
RESULT: > 100 µM

QUERY: Continue with COc1ccc2nc(-c3ccccc3)cc(Nc3ccc(/C(C)=N/O)cc3)c2c1
RESULT: 2.07 µM

QUERY: Continue with NCCCCNCCCN
RESULT: > 100 µM

QUERY: Continue with COc1cc(Nc2ncc3c(n2)-c2ccc(Cl)cc2C(c2c(F)cccc2OC)=NC3)ccc1C(=O)O
RESULT: > 100 µM

QUERY: Continue with N#CSCC1COc2ccccc2O1 (stereo not drawn)
RESULT: > 10 µM

QUERY: Continue with c1ccc(Cn2cc3c(c2)-c2oncc2CC3)cc1
RESULT: 51.9 µM

QUERY: Continue with CC1(C)Oc2ccc(Cl)cc2C12CC2
RESULT: 47.6 µM

QUERY: Continue with Cc1cc(=O)c2c(O)c3c(O)cc(O)c4c5c(O)cc(O)c6c(O)c7c(=O)cc(C)c8c1c2c(c34)c(c65)c78
RESULT: > 100 µM

QUERY: Continue with c1ccc(C(=NNc2nc3ccccc3[nH]2)c2ccccn2)nc1
RESULT: > 53.6 µM

QUERY: Continue with Cc1c(N2C(=O)/C(=C\c3ccc(O)cc3)N=C2c2ccccc2)c(=O)n(-c2ccccc2)n1C
RESULT: > 100 µM

QUERY: Continue with Cc1cc(NC2=NCCO2)c2c(c1C)CCCC2
RESULT: 77.9 µM

QUERY: Continue with CCC(=N\NC(N)=S)/C(C)=N/O
RESULT: > 100 µM

QUERY: Continue with C=C1c2nc3ccccc3n2C=C(c2ccc(Cl)cc2)N1c1ccccc1
RESULT: > 100 µM

QUERY: Continue with COc1cc(/C=C/C(=O)c2c(C)n([O-])c3cc(C)c(C)cc3[n+]2=O)cc(OC)c1OC
RESULT: 44.7 µM

QUERY: Continue with C/C1=C\CC[C@@](C)(O)[C@H]2C[C@H](CC/C(C)=C/CC1)C1(CC1)C(=O)O2
RESULT: 35.1 µM

QUERY: Continue with O=C(c1ccc(Cl)cc1)N(Cc1cccnc1)C(=S)N(Cc1cccnc1)C(=O)c1ccc(Cl)cc1
RESULT: 59.3 µM

QUERY: Continue with COc1ccc(N2CCN(c3ccc4c(c3)NCC(=O)N4)CC2)cc1
RESULT: > 100 µM

QUERY: Continue with O=c1c2c([nH]c3cc4c(cc13)OCO4)-c1ccccc1CCC2
RESULT: > 50 µM

QUERY: Continue with CN(C)CCCNC(=O)c1cc(NC(=O)c2cc(NC(=O)c3cc(NC(=O)CCCn4ccc(CO)c4CO)cn3C)cn2C)cn1C
RESULT: > 100 µM

* * *

I'd appreciate it if you could supply TGI values for the items below.
- System: COLO 205 colon
- Method Description: NCI tumour cell line growth inhibition, 48 h

QUERY: Param item = Cc1nnc(N)nc1/C=C\c1cccs1 ; retrieve measured TGI.
RESULT: > 100 µM

QUERY: Continue with C(=C1\CCC/C(=C/c2ccccc2)C1=NNc1ccccc1)/c1ccccc1
RESULT: > 100 µM

QUERY: Continue with CC1OC(OC2C(OC3C[C@@]4(C)C(C[C@H](O)[C@H]5[C@H](C6(C)CCC(C(C)(C)O)O6)CCC54C)[C@]4(C)CC[C@@H](O)C(C)(C)C34)OC(CO)C(O)C2O)C(O)C(O)C1O (stereo partly drawn) (tested in a mixture with another compound)
RESULT: > 100 µM

* * *

- Tested on: KM12 colon
- Method Description: NCI tumour cell line growth inhibition, 48 h
I'd appreciate it if you could supply TGI values for the items below.

QUERY: Param item = COc1ccc2[nH]c(C(=O)N3CC(CCl)c4ccc([N+](=O)[O-])cc43)cc2c1 (stereo not given) ; retrieve measured TGI.
RESULT: > 100 µM

QUERY: Continue with COc1ccc(N2CCN(c3ccc4c(c3)NCC(=O)N4)CC2)cc1
RESULT: 49 µM

QUERY: Continue with COc1cc(Nc2ncc3c(n2)-c2ccc(Cl)cc2C(c2c(F)cccc2OC)=NC3)ccc1C(=O)O
RESULT: > 92.9 µM

QUERY: Continue with Nc1c(C(=O)Nc2cccc3ccccc23)sc2nc3c(cc12)CCCC3
RESULT: > 100 µM

QUERY: Continue with Cc1cc(=O)c2c(O)c3c(O)cc(O)c4c5c(O)cc(O)c6c(O)c7c(=O)cc(C)c8c1c2c(c34)c(c65)c78
RESULT: > 100 µM

* * *

- Test system: EKVX NSCLC
- Method Description: NCI tumour cell line growth inhibition, 48 h
Experimental Endpoint: GI50

QUERY: Param item = CN(C)CCCNC(=O)c1cc2c3ccccc3[nH]c2c2ncccc12 ; retrieve measured GI50.
RESULT: 15.3 µM

QUERY: Continue with O=C1OCC2=C1C(c1cccc(F)c1)c1cc3c(cc1N2CCO)OCCO3 (stereo not given)
RESULT: 0.306 µM

QUERY: Continue with c1ccc(-c2n(Cc3ccc4ccccc4n3)c3ccccc3[n+]2Cc2ccc3ccccc3n2)cc1
RESULT: 0.693 µM

QUERY: Continue with O=C(Cc1ccccc1)Nc1nnc(CCSCCc2nnc(NC(=O)Cc3ccccc3)s2)s1
RESULT: > 100 µM

QUERY: Continue with Cc1cc(N(CCCNc2ccnc3cc(Cl)ccc23)Cc2cccs2)nc(Cl)n1
RESULT: 3.72 µM

* * *

- Tested on: SK-MEL-2 melanoma
- Method Description: NCI tumour cell line growth inhibition, 48 h
Experimental Endpoint: TGI

QUERY: Param item = O=C1CCC2=C(CCC2)N1CCc1ccc2c(c1)OCO2 ; retrieve measured TGI.
RESULT: > 100 µM

QUERY: Continue with O=C(CCc1cc(O)cc(O)c1)NCCc1ccc(O)c(O)c1
RESULT: > 100 µM

QUERY: Continue with c1ccc(C(=NNc2nc3ccccc3[nH]2)c2ccccn2)nc1
RESULT: > 100 µM

QUERY: Continue with CNC1=C(C)C(=O)C(C)=C(C(C)(C)CC(=O)n2cc(F)c(=O)[nH]c2=O)C1=O
RESULT: > 100 µM

* * *

- System: HT29 colon
- Method Description: NCI tumour cell line growth inhibition, 48 h
Experimental Endpoint: TGI

QUERY: I'm curious: which TGI was measured for COc1ccc(N2C(=O)C3c4[nH]c5ccccc5c4C4CCC(C(C)C)CC4C3C2=O)cc1 (stereo not drawn) tested on HT29 colon?
RESULT: > 100 µM

QUERY: Continue with CCN(CC)c1ccc(/C=C/C(=O)c2cccc(NS(C)(=O)=O)c2)cc1
RESULT: > 100 µM

QUERY: Continue with CCOC(=O)/C=C(/C(=O)OCC)n1c(=O)c(C)cn(C2CC(N=[N+]=[N-])C(CO)O2)c1=O (stereo not drawn)
RESULT: > 100 µM
